Origin of the recorded values: patent US20210163404A1

# Tested on: HT-29 colon adenocarcinoma cells
# ASSAY DETAILS: Antiproliferative activity (NCI procedure, sulforhodamine B), HT-29
# Type: cell-based, human
# RUN PARAMETERS: Homo sapiens, HT-29; Table 5; unit inferred, tested 781 nM to 100 μM, 48 h
# Procedure: The antiproliferative activity of compounds 3a-b, 4a-e, 5a-e and 6a-e was subsequently evaluated using the human HT-29 colon adenocarcinoma and the A549 adenocarcinoma alveolar epithelial cancer cell lines, the HaCaT spontaneously transformed aneuploid immortal keratinocyte cell line and the HDFn neonatal dermal fibroblast cell line (Table 2). Cell growth inhibition was assessed according to the NCI/NIH Developmental Therapeutics Program. […]
pIC50: −log10 of the molar value.
Below, each entry is listed with its recorded pIC50.

| MOLECULE | TGT | RESULT OPERATOR | pIC50 |
| --- | --- | --- | --- |
| CC(C)(C)NC(=O)Nc1ccc(C2CCCCC2)cc1 | HT-29 colon adenocarcinoma cells | = | 4.59 |
| CC(C)NC(=O)Nc1cccc(I)c1 | HT-29 colon adenocarcinoma cells | < | 4.00 |
| CC(C)(C)NC(=O)Nc1cccc(I)c1 | HT-29 colon adenocarcinoma cells | = | 4.09 |
| CC(C)(C)NC(=O)Nc1ccc(C(C)(C)C)cc1 | HT-29 colon adenocarcinoma cells | = | 4.45 |
| CC(C)NC(=O)Nc1cccc(C2CCCCC2)c1 | HT-29 colon adenocarcinoma cells | < | 4.00 |
| CC(C)NC(=O)Nc1cccc(C(C)(C)C)c1 | HT-29 colon adenocarcinoma cells | = | 4.07 |
| CC(C)NC(=O)Nc1ccc(C2CCCCC2)cc1 | HT-29 colon adenocarcinoma cells | = | 4.24 |
| CCCNC(=O)Nc1ccc(C2CCCCC2)cc1 | HT-29 colon adenocarcinoma cells | < | 4.00 |
| CC(C)(C)NC(=O)Nc1cccc(C(C)(C)C)c1 | HT-29 colon adenocarcinoma cells | = | 4.46 |
| CCCNC(=O)Nc1cccc(I)c1 | HT-29 colon adenocarcinoma cells | = | 4.06 |
| CC(C)(C)NC(=O)Nc1ccc(I)cc1 | HT-29 colon adenocarcinoma cells | = | 4.48 |
